Hi there, I'd appreciate the recorded cytotoxicity for every entry that follows.
ASSAY_SUMMARY: viability loss of HPDE-C7K cells – cell-based, fluorescence, HTS, primary screen (AID 431);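 also: 0% = DMSO solvent wells and 100% = doxorubicin-treated wells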
PROTOCOL_CONDITIONS: HPDE-C7K KRASV12 cells, Alamar Blue viability, 48 h; at 10 µM; stronger effect = higher value
The campaign covered roughly 63,000 compounds. About 1,100 (1.7%) were called active. The full list was thinned out, with actives kept by preference. Entries with a potency or affinity are not part of this list.

Ask: Provide only the value of recorded cytotoxicity for CCSC1=N/C(=C\c2ccc3c(c2)OCO3)C(=O)S1
Reply: 40.9% (inactive)

Ask: For the molecule CC(=O)C1=C(C)NC(SCC(=O)c2ccc(F)cc2)=C(C#N)C1c1ccco1 (stereo not given) , report cytotoxicity.
Reply: 90.5% (active)

Ask: Recall and state the measured cytotoxicity for COC(=O)c1ccc(CSc2nnc(NCc3ccccc3)s2)o1 .
Reply: -2.2% (inactive)

Ask: Give recorded cytotoxicity. C=CCc1ccc(OCC(O)CN2CCCCC2C)c(OC)c1 (stereo not given)
Reply: 22.6% (inactive)

Ask: Indicate its recorded cytotoxicity; the molecule in question is O=c1[nH]c(Nc2ccccc2)cc2ccccc12
Reply: 0.6% (inactive)

----------
ASSAY_SUMMARY: viability loss of HPDE-C7K cells – cell-based, fluorescence, HTS, primary screen (AID 431);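 also: 0% = DMSO solvent wells and 100% = doxorubicin-treated wells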
PROTOCOL_CONDITIONS: HPDE-C7K KRASV12 cells, Alamar Blue viability, 48 h; at 10 µM; stronger effect = higher value
Hit rate of the full screen: of about 63,000 compounds, about 1,100 (1.7%) were called active. This excerpt belongs to a sample that is enriched for actives. Entries with a potency or affinity are not part of this list.
Classify: Criterion met when cytotoxicity is strictly less than 10%; Criterion not met when cytotoxicity is not.

Ask: Please check: cytotoxicity for CCOC(=O)c1ccc(-n2c(=O)[nH]c3ccccc3c2=O)cc1 , strictly under 10% or not?
Reply: Criterion met

Ask: Dear reviewer, please state whether COc1ccccc1C(=O)N1CCN(c2cccc(C(F)(F)F)c2)CC1 has cytotoxicity strictly beneath 10%.
Reply: Criterion not met

Ask: Please indicate whether the reported cytotoxicity of c1coc(CNc2ncnc3sc4c(c23)CCCCC4)c1 is strictly below 10%.
Reply: Criterion met

Ask: Record O=C(NC1CCN(C(=O)N2c3ccccc3Sc3ccccc32)CC1)c1ccco1 : is its cytotoxicity strictly below 10%?
Reply: Criterion met

Ask: hey, is cytotoxicity for CCn1c(SCC(=O)N2CCc3ccccc32)nnc1-c1ccncc1 lower than 10% or not?
Reply: Criterion met

Ask: For this compound, is cytotoxicity lower than 10%? CCOC(=O)c1ccc(-n2[nH]c(-c3ccccc3)cc2=O)cc1
Reply: Criterion not met

Ask: Strictly below 10% in cytotoxicity? Cc1c(C(=O)OCC2CCCO2)[nH]c2c1C(=O)CC(c1ccc(N(C)C)cc1)C2 (stereo not given)
Reply: Criterion met

Ask: Threshold test, cytotoxicity < 10%: O=C(Nc1nc2c(s1)CCCC2)c1cc2n(n1)C(C(F)(F)F)CC(C1CC1)N2 (stereo not given)
Reply: Criterion not met

Ask: For O=C(c1cccc(F)c1)N1CCN(c2cccc(Cl)c2)CC1 , is the recorded cytotoxicity below the cut-off of 10%?
Reply: Criterion not met

Ask: Please state whether cytotoxicity is below 10% for CCCc1ccc(Oc2cn[nH]c2-c2ccc(O)c(C)c2O)cc1
Reply: Criterion not met

Ask: For COc1ccc(CCNC(=O)CN2CCN(c3cccc(Cl)c3)CC2)cc1OC , is the recorded cytotoxicity below the cut-off of 10%?
Reply: Criterion met

Ask: Hello, I'm reviewing records and need to know if cytotoxicity of O=C(CCCCCn1c(SCc2ccncc2)nc2ccccc2c1=O)NCc1ccco1 is below 10%. Could you check?
Reply: Criterion met

Ask: Is cytotoxicity strictly under 10% for the entry CCOCCOC(=O)c1[nH]c2c(c1C)C(=O)CC(c1ccc(N(C)C)cc1)C2 (stereo not given) ?
Reply: Criterion met

Ask: Hello, I'm reviewing records and need to know if cytotoxicity of O=C(CN1CCN(c2ccccn2)CC1)N1c2ccccc2Sc2ccc(C(F)(F)F)cc21 is below 10%. Could you check?
Reply: Criterion not met

Ask: Is cytotoxicity strictly under 10% for the entry CSc1nc2cc(Cl)ccc2s1 ?
Reply: Criterion met

Ask: Answer whether the compound CCOC(=O)c1ccccc1NC(=O)Cn1c(-c2nonc2N)nc2ccccc21 has cytotoxicity strictly less than 10%
Reply: Criterion not met

Ask: Please indicate whether the reported cytotoxicity of CCCCOc1ccccc1NC(=O)Cn1c(-c2nonc2N)nc2ccccc21 is strictly below 10%.
Reply: Criterion not met

Ask: is_below(cytotoxicity, 10%) for NC1=NC(c2ccc(Cl)cc2)n2c(nc3ccccc32)N1 (stereo not given) ?
Reply: Criterion met

Ask: Dear colleague, could you confirm whether cytotoxicity of O=C(c1c(Cl)nc2sccn12)N1CCN(c2cccc(Cl)c2)CC1 falls below 10%? Thanks.
Reply: Criterion not met

Ask: I'd appreciate it if you could check whether N#CCCn1c(-c2nonc2NC(=O)c2ccccc2Cl)nc2ccccc21 has cytotoxicity smaller than 10%.
Reply: Criterion not met

Ask: For O=C(NCc1ccc(F)cc1)c1cc2n(n1)C(C(F)(F)F)CC(C1CC1)N2 (stereo not given) , is the recorded cytotoxicity below the cut-off of 10%?
Reply: Criterion met

Ask: Lab note: cytotoxicity threshold 10%. Does this compound come in strictly under it? Nc1c(C(=O)NCC2CCCO2)c2nc3ccccc3nc2n1-c1ccccc1 (stereo not given)
Reply: Criterion not met

Ask: Would you kindly verify if cytotoxicity of O=C(N1CCOCC1)N1CCN(c2ccccn2)CC1 is strictly less than 10%?
Reply: Criterion met

Ask: Please check: cytotoxicity for Fc1ccc(Br)cc1C1C=C(c2cccnc2)Nc2ncnn21 (stereo not given) , strictly under 10% or not?
Reply: Criterion not met

Ask: Does the reported cytotoxicity of the following compound sit strictly below 10%? Cc1c(C(=O)OCC2CCCO2)[nH]c2c1C(=O)CC(c1ccco1)C2 (stereo not given)
Reply: Criterion not met

Ask: Is 10% strictly greater than the compound's reported cytotoxicity? compound: COc1ccc(Cl)c(Cn2c(NCCCN(C)C)nc3c2c(=O)n(C)c(=O)n3C)c1
Reply: Criterion met

Ask: Hi there! Is cytotoxicity for CCOc1ccc(C2CC(=O)c3c([nH]c(C(=O)OC)c3C)C2)cc1OC (stereo not given) below 10%, do you know?
Reply: Criterion met

Ask: In the record for CCC(=O)Nc1ccc(OC)cc1OC , is cytotoxicity less than 10%?
Reply: Criterion met

Ask: Does the reported cytotoxicity of Fc1ccc(Br)cc1C1C=C(c2ccc(Br)s2)Nc2ncnn21 (stereo not given) stay below 10%?
Reply: Criterion not met

----------
ASSAY_SUMMARY: viability loss of HPDE-C7K cells – cell-based, fluorescence, HTS, primary screen (AID 431);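 also: 0% = DMSO solvent wells and 100% = doxorubicin-treated wells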
PROTOCOL_CONDITIONS: HPDE-C7K KRASV12 cells, Alamar Blue viability, 48 h; at 10 µM; stronger effect = higher value
Screen size: about 63,000 compounds; about 1,100 (1.7%) were called active. The entries come from a sample that favours actives as a whole. Potency and affinity values are given separately.
ENDPOINT: cytotoxicity (%)
Number only, in %; omit the unit.

Ask: Return reported cytotoxicity. Input compound: O=C(Cc1cccs1)NCc1ccco1
Reply: 6.7

Ask: Give a short answer stating reported cytotoxicity for CCOC(=O)C1=C(C)OC(N)=C(C#N)C1c1ccsc1 (configuration not stated) .
Reply: 9.1

Ask: Indicate the recorded cytotoxicity value for this compound: CCC(c1nnnn1Cc1ccco1)N(CCc1ccccc1)Cc1cc2cc(C)ccc2[nH]c1=O (configuration not stated)
Reply: 36

Ask: Quote cytotoxicity reported for CCOc1cc(NC(=O)c2ccccn2)c(OCC)cc1NC(=O)CC(C)C please.
Reply: 9.9

Ask: Give the value of cytotoxicity reported for the following: COC(=O)c1ccc(NS(=O)(=O)c2ccc(OC)cc2)cc1
Reply: -10.3

Ask: Fill in reported cytotoxicity for this entry: OC[C@H]1O[C@@H](n2cnc3c(NC4CCCC4)ncnc32)[C@H](O)[C@@H]1O
Reply: 3.7

Ask: Could you please provide reported cytotoxicity for CCOc1ccc2[nH]c(=O)c(CN(Cc3cccs3)C(CC)c3nnnn3C(C)(C)CC)cc2c1 (configuration not stated) ? Thanks!
Reply: 30.4

Ask: Note down cytotoxicity recorded for COc1cccc(CNC(=O)C2CCN(C(=O)N(C)C)CC2)c1
Reply: -6.1

Ask: Give a short answer stating reported cytotoxicity for CCC(c1nnnn1C1CCCCC1)N(Cc1ccco1)Cc1cc2ccc(OC)cc2[nH]c1=O (configuration not stated) .
Reply: 64.5

Ask: Supply recorded cytotoxicity for CCCCCN=Cc1c(C)[nH]n(-c2nc3ccccc3s2)c1=O here.
Reply: 13.1

Ask: Please give measured cytotoxicity of the following entry: CCOc1ccccc1N(CC(=O)NC1CCCC1)C(=O)CCCC(=O)Nc1ccccn1
Reply: -29.3

Ask: Provide one value: measured cytotoxicity of COC(=O)c1ccc(C)c(NS(=O)(=O)c2ccc(OC)cc2)c1
Reply: 65.2

Ask: Specify reported cytotoxicity for the compound shown: Cc1ccc2c(COn3nnc4ccc(S(=O)(=O)N(C)C)cc43)cc(=O)oc2c1C
Reply: 2.9

Ask: State its cytotoxicity for this compound: CCc1ccc2c(COn3nnc4ccc(S(=O)(=O)N(C)C)cc43)cc(=O)oc2c1
Reply: 62

Ask: Fill in cytotoxicity for record CCOC(=O)c1c(-c2cccs2)csc1NC(=O)CN1CC(C)OC(C)C1 (configuration not stated)
Reply: 60.6

Ask: Give recorded cytotoxicity. Cn1nccc1C(=O)OCC(=O)Nc1nc(-c2ccccc2)cs1
Reply: -24.7

Ask: Give the reported cytotoxicity for this compound. Nc1ncnc2c1ncn2[C@@H]1O[C@H](CO)[C@@H](O)[C@H]1O
Reply: -17.3
